Origin of values: paper PMC10428205

Assignment: determine reported E0’ (Fc*/Fc*+) at 0.10 V/s for the given compounds.
# EXPERIMENT_DESCRIPTION: Cyclic voltammetry
# CONDITION_NOTES: scan speed 0.10 V/s
Entry rule: numbers only, all in V.

Problem: Entry under review: `O=C(C=C(O)c1ccccc1)[c-]1cccc1.[Fe+2].c1cc[cH-]c1` . Reported E0’ (Fc*/Fc*+) at 0.10 V/s?
Result: 0.63

Problem: Given the entry `O=C(C=C(O)C(F)(F)F)[c-]1cccc1.[Fe+2].c1cc[cH-]c1` , report its measured E0’ (Fc*/Fc*+) at 0.10 V/s.
Result: 0.71

Problem: What value of E0’ (Fc*/Fc*+) at 0.10 V/s has been recorded for this entry: `O=C(C=C(O)c1ccco1)[c-]1cccc1.[Fe+2].c1cc[cH-]c1`
Result: 0.63

Problem: For the compound shown here, `CC(O)=CC(=O)[c-]1cccc1.[Fe+2].c1cc[cH-]c1` , give the reported E0’ (Fc*/Fc*+) at 0.10 V/s.
Result: 0.62

---

# System: HCT116 p53+/+
# EXPERIMENT_DESCRIPTION: 96 h MTT chemosensitivity assay
# Type: cell-based, human
# CONDITION_NOTES: 96 h MTT, ± SD; read-out: IC50 against HCT116 p53+/+
Answer each item with its documented IC50.
Give the number; µM is assumed, so skip it.

Problem: Quick one: IC50 for N.N.O=C([O-])C1(C(=O)[O-])CCC1.[Pt+2] [CARB, carboplatin, reference compound] ?
Result: 32

Problem: Field request: IC50 | item: [NH2][Pt]([NH2])([Cl])[Cl] [CDDP, cisplatin, reference compound]
Result: 3.3

Problem: What IC50 value was documented for this compound, O=C1[O][Pt]2([NH][C@@H]3CCCC[C@H]3[NH]2)[O]C1=O [OXA, oxaliplatin, reference compound] ?
Result: 0.9

---

Provide the reported E0’ (Fc*/Fc*+) at 0.25 V/s of each item.
# EXPERIMENT_DESCRIPTION: Cyclic voltammetry
# CONDITION_NOTES: scan speed 0.25 V/s
Report the figure in V without appending any unit label.

Problem: Reported E0’ (Fc*/Fc*+) at 0.25 V/s for `O=C(C=C(O)c1ccccc1)[c-]1cccc1.[Fe+2].c1cc[cH-]c1` : what is it?
Result: 0.63

Problem: What value of measured E0’ (Fc*/Fc*+) at 0.25 V/s is listed for `CC(O)=CC(=O)[c-]1cccc1.[Fe+2].c1cc[cH-]c1` ?
Result: 0.63

Problem: // returns reported E0’ (Fc*/Fc*+) at 0.25 V/s for input `O=C(C=C(O)c1ccco1)[c-]1cccc1.[Fe+2].c1cc[cH-]c1`
Result: 0.63

Problem: So what does the record say about E0’ (Fc*/Fc*+) at 0.25 V/s for `O=C(C=C(O)C(F)(F)F)[c-]1cccc1.[Fe+2].c1cc[cH-]c1` ?
Result: 0.71
